Values from patent US8178506B2

# reported % cells in cell cycle phase: G1; entries follow
# Tested on: A549 cells
# Procedure text: Cell cycle assay in A549 cells
# Format: cell-based, human
# Condition description: A549 cells, 150 nM, 24 hours; relative to the untreated control cells in that phase
Give just the numeric value; % need not be written.

Examples with answers:
340350 (antisense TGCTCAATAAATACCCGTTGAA; all 2'-MOE, all phosphorothioate, methylation of C not given here) [compound 340350] | 128
338836 (antisense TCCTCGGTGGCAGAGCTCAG; all 2'-MOE, all phosphorothioate, methylation of C not given here) [compound 338836] | 117
338769 (antisense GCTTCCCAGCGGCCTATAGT; all 2'-MOE, all phosphorothioate, methylation of C not given here) [compound 338769] | 117

# next substance below
**Q:** Please list % cells in cell cycle phase: G1 recorded for the substance 338637 (antisense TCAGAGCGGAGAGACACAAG; all 2'-MOE, all phosphorothioate, methylation of C not given here) [compound 338637]
**A:** 123

====

# Test system: PEPCK-c
# Procedure text: PEPCK-c mRNA expression in HepG2 cells
# Format: cell-based, human
# Condition description: Experiment 2, insulin treated: HepG2 cells transfected with oligomeric compound, 1 nM insulin for four hours; UTC + 1 nM insulin = 100
In the oligonucleotide strings, read from the 5' end, every base follows the letter of its sugar. An asterisk marks phosphorothioate; unmarked linkages are phosphodiester. Other units and linkages are bracketed, terminal groups are in braces. A string of capitals states the bases alone. e = 2'-O-(2-methoxyethyl) (MOE); [5mC] = 5-methylcytosine; d = 2'-deoxy (DNA)
Rule: true for PEPCKc mRNA expression not less than 100, false for anything less.

Recorded results for 5 substances are shown here.
327916 (antisense eT*eG*eG*e[5mC]*eA*eT*eT*e[5mC]*eA*e[5mC]*e[5mC]*eG*e[5mC]*eG*eT*eG*e[5mC]*e[5mC]*eT*eT*eA*eA) [compound 327916] | false
327959 (antisense e[5mC]*eA*eG*e[5mC]*e[5mC]*eG*e[5mC]*eT*eG*eT*e[5mC]*eA*e[5mC]*eA*e[5mC]*eG*e[5mC]*eA*e[5mC]*eA*eG) [compound 327959] | true
327958 (antisense e[5mC]*e[5mC]*eG*eG*e[5mC]*eT*eG*e[5mC]*eA*eA*e[5mC]*eA*e[5mC]*eA*eA*eG*eA*e[5mC]*eA*e[5mC]*eG*eA) [compound 327958] | true
328125 (antisense eT*eA*eT*eG*eA*eA*eA*eT*eG*e[5mC]*e[5mC]*eA*eG*eA*eG*e[5mC]*eT*eG*e[5mC]*e[5mC]*eA) [compound 328125] | false
328367 (eA*e[5mC]*eT*eG*eA*dG*dG*dG*d[5mC]*dG*dG*d[5mC]*d[5mC]*d[5mC]*dG*eG*eG*e[5mC]*eA*eG) [compound 328367] | false

Now for another entry.
**Q:** In plain terms: is recorded PEPCKc mRNA expression at least 100 for 327897 (antisense eA*e[5mC]*eA*eG*eG*e[5mC]*e[5mC]*eG*eG*eG*eA*e[5mC]*eA*eA*eG*eT*eG*e[5mC]*eA*eA*eT*eA) [compound 327897] ?
**A:** false

====

# reported aP2 mRNA; entries follow
# Test system: aP2
# Procedure text: aP2 mRNA expression in adipocytes (real-time PCR)
# Type: cell-based, human
# Condition description: differentiating adipocytes transfected with oligomeric compound; Table 75
In the oligonucleotide strings, read from the 5' end, every base follows the letter of its sugar. An asterisk marks phosphorothioate; unmarked linkages are phosphodiester. Other units and linkages are bracketed, terminal groups are in braces. A string of capitals states the bases alone. e = 2'-O-(2-methoxyethyl) (MOE); [5mC] = 5-methylcytosine

327972 (antisense eA*e[5mC]*eT*e[5mC]*eA*e[5mC]*e[5mC]*eG*eA*e[5mC]*eA*eG*eG*eT*eT*eG*eA*eA*eT*eG*eT*eT) [compound 327972] | 70 percentage of untreated control (UTC)

# next substance below
**Q:** Please list aP2 mRNA recorded for the substance 327944 (antisense eA*eA*eA*eG*eT*eG*eT*e[5mC]*eA*eG*eA*eT*eA*e[5mC]*eG*eG*eT*eG*eT*eG*eG) [compound 327944]
**A:** 71 percentage of untreated control (UTC)
